# TESTED TARGET: MK2 (Homo sapiens)
# ASSAY DETAILS: MK2 degradation in human THP-1 monocytic cells (MSD, 24 h)
# Assay type: cell-based
# Parameters: endogenous in cells
# PARTICULARS: THP-1, THP-1 cells
# key: entry, value: Dmax

Worked set:
[ask] Please report the recorded Dmax for C[C@@H]1CNc2c(sc3ccc4nc(-c5ccc(N6CCN(CCc7ccc8c(c7)n(C)c(=O)n8C7CCC(=O)NC7=O)CC6)cc5)ccc4c23)C(=O)N1 (some centres unmarked) [Compound I-280] .
[reply] > 75%

[ask] Please report the recorded Dmax for COc1cc(N2CCN(CC3CCN(c4ccc5c(c4)n(C)c(=O)n5C4CCC(=O)NC4=O)CC3)CC2)cc(-n2cc(-c3ccc4c(c3)CCNC4=O)c(N)n2)c1 (centres unmarked) [Compound I-459] .
[reply] < 50%

[ask] Please report the recorded Dmax for C[C@@H]1CNc2c(sc3ccc4nc(N5CCN(CC6CCN(c7ccc(-c8ccc9c(c8)n(C)c(=O)n9C8CCC(=O)NC8=O)cc7)CC6)CC5)ccc4c23)C(=O)N1 (some centres unmarked) [Compound I-184] .
[reply] > 75%

[ask] Please report the recorded Dmax for C[C@@H]1CNc2c(sc3ccc4nc(-c5ccc(N6CCN(CCc7ccc8c(c7)n(C)c(=O)n8C7CCC(=O)NC7=O)CC6)nc5)ccc4c23)C(=O)N1 (some centres unmarked) [Compound I-279] .
[reply] > 75%

Now look at this one.
[ask] Please report the recorded Dmax for C[C@@H]1CNc2c(sc3ccc4nc(N5CCC(CN6CCC7(CC6)CCN(c6ccc8c(c6)n(C)c(=O)n8C6CCC(=O)NC6=O)CC7)CC5)ccc4c23)C(=O)N1 (some centres unmarked) [Compound I-391] .
[reply] > 75%

* * *

# TESTED TARGET: MK2 (Homo sapiens)
# ASSAY DETAILS: MK2 degradation in human THP-1 monocytic cells (MSD, 24 h)
# Format: cell-based
# Parameters: endogenous in cells
# PARTICULARS: THP-1 cells, read-out: MK2 MSD THP-1 degradation 24 h GMean External Abs DC50
ASSAY READOUT: DC50

[ask] Please report the recorded DC50 for C[C@@H]1CNc2c(sc3ccc4nc(-c5ccc(C#CCCNC(=O)CCCCCCCCCc6ccc7c(c6)n(C)c(=O)n7C6CCC(=O)NC6=O)cc5)ccc4c23)C(=O)N1 (some centres unmarked) [Compound I-53] .
[reply] 10 to 100 nM

[ask] Please report the recorded DC50 for C[C@@H]1CNc2c(sc3ccc4nc(-c5ccc(N6CCN(CC7CN(c8ccc9c(c8)n(C)c(=O)n9C8CCC(=O)NC8=O)C7)CC6)nc5)ccc4c23)C(=O)N1 (some centres unmarked) [Compound I-254] .
[reply] < 1 nM

[ask] Please report the recorded DC50 for Cn1c(=O)n(C2CCC(=O)NC2=O)c2cccc(N3CC(N4CCN(c5ccc(-c6cc(-c7cc8c([nH]7)C7(CCCC7)CNC8=O)ccn6)cc5)CC4)C3)c21 (centres unmarked) [Compound I-418] .
[reply] 1 to 10 nM

Next:
[ask] Please report the recorded DC50 for C[C@@H]1CNc2c(sc3ccc4nc(-c5cccc(N6CCN(CCCCCCCCCCc7cccc8c7n(C)c(=O)n8C7CCC(=O)NC7=O)CC6)c5)ccc4c23)C(=O)N1 (some centres unmarked) [Compound I-177] .
[reply] 10 to 100 nM

[ask] Please report the recorded DC50 for C[C@@H]1CNc2c(sc3ccc4nc(-c5ccc(N6CCN(CCCc7cccc8c7n(C)c(=O)n8C7CCC(=O)NC7=O)CC6)cc5)ccc4c23)C(=O)N1 (some centres unmarked) [Compound I-172] .
[reply] < 1 nM

* * *

# TESTED TARGET: MK2 (Homo sapiens)
# ASSAY DETAILS: MK2 degradation in human SW1353 cells (MSD, 24 h)
# Type: cell-based
# Set-up: endogenous in cells; host or cells: SW-1353 (ATCC HTB-94)
# PARTICULARS: read-out: MK2 MSD SW1353 degradation 24 h GMean External Abs DC50
# Procedure: MK2 Degradation in Human SW1353 Cells […] After 3 more washes, the secondary detection antibody (SULFO-Tag anti rabbit antibody R32AB-5) was added at a final concentration of 1 microgram per ml at 25 microlitres per well and shaken at room temperature for 1 hour at 600 rpm. After 3 more washes, the 1×MSD (diluted from 5× concentrate with water) reading buffer was added at 150 microlitres per well and read on the MSD instrument Meso Sector S 600. […]
# key: entry, value: DC50

Worked set:
[ask] // lookup DC50 | system=MK2 (Homo sapiens) | key= Cn1c(=O)n(C2CCC(=O)NC2=O)c2ccc(N3CCC(CN4CCN(c5ccc(-c6cc(-c7cc8c([nH]7)CCNC8=O)ccn6)c(F)c5)CC4)CC3)cc21 (centres unmarked)
[reply] < 1 nM

[ask] // lookup DC50 | system=MK2 (Homo sapiens) | key= Cn1c(=O)n(C2CCC(=O)NC2=O)c2cccc(N3CC(CN4CCN(c5ccc(-c6cc(-c7cc8c([nH]7)C7(CC7)CNC8=O)ccn6)cc5)CC4)C3)c21 (centres unmarked)
[reply] < 1 nM

[ask] // lookup DC50 | system=MK2 (Homo sapiens) | key= CCc1cc(-c2ccc3c(ccc4sc5c(c43)NC[C@@H](C)NC5=O)n2)cc(N2CCN(CC3CCN(c4ccc5c(c4)n(C)c(=O)n5C4CCC(=O)NC4=O)CC3)CC2)c1 (some centres unmarked)
[reply] 1 to 10 nM

[ask] // lookup DC50 | system=MK2 (Homo sapiens) | key= Cn1c(=O)n(C2CCC(=O)NC2=O)c2ccc(CCCCCCN3CC4(CCN(c5ccc6c(c5)Cn5cc(-c7ccc(F)cc7)cc5-c5nccn5-6)C4)C3)cc21 (centres unmarked)
[reply] > 100 nM

Now look at this one.
[ask] // lookup DC50 | system=MK2 (Homo sapiens) | key= C[C@@H]1CNc2c(sc3ccc4nc(-c5cccc(N6CCN(C(=O)COCCOCCc7cccc8c7n(C)c(=O)n8C7CCC(=O)N(C)C7=O)CC6)c5)ccc4c23)C(=O)N1 (some centres unmarked)
[reply] > 100 nM

* * *

# key: entry, value: DC50
# TESTED TARGET: UniProtKB P49137
# ASSAY DETAILS: MK2 degradation in human THP-1 monocytic cells (MSD, 24 h)
# Assay type: cell-based
# Set-up: endogenous in cells
# PARTICULARS: THP-1 cells, read-out: MK2 MSD THP-1 degradation 24 h GMean External Abs DC50

[ask] // lookup DC50 | system=UniProtKB P49137 | key= C[C@@H]1CNc2c(sc3ccc4nc(N5CCN(CC6CCN(c7cccc8c7n(C)c(=O)n8C7CCC(=O)NC7=O)CC6)CC5)ccc4c23)C(=O)N1 (stereo partly drawn)
[reply] 1 to 10 nM

[ask] // lookup DC50 | system=UniProtKB P49137 | key= C[C@@H]1CNc2c(sc3ccc4nc(-c5ccc(N6CCC(CN7CCN(c8ccc9c(c8)n(C)c(=O)n9C8CCC(=O)NC8=O)CC7)CC6)cc5F)ccc4c23)C(=O)N1 (stereo partly drawn)
[reply] < 1 nM

[ask] // lookup DC50 | system=UniProtKB P49137 | key= Cn1c(=O)n(C2CCC(=O)NC2=O)c2ccc(N3CC(CN4CCN(c5ccc(-c6cc(-c7cc8c(s7)CCNC8=O)ccn6)cc5)CC4)C3)cc21 (stereo not drawn)
[reply] > 100 nM

[ask] // lookup DC50 | system=UniProtKB P49137 | key= C[C@@H]1CNc2c(sc3ccc4nc(-c5ccc(N6CCN(CCCc7cccc8c7n(C)c(=O)n8C7CCC(=O)NC7=O)CC6)nc5)ccc4c23)C(=O)N1 (stereo partly drawn)
[reply] < 1 nM

[ask] // lookup DC50 | system=UniProtKB P49137 | key= C[C@@H]1CNc2c(sc3ccc4nc(-c5ccc(N6CCN(C[C@@H]7CCN(c8ccc9c(c8)n(C)c(=O)n9C8CCC(=O)NC8=O)C7)CC6)cc5)ccc4c23)C(=O)N1 (stereo partly drawn)
[reply] 1 to 10 nM

[ask] // lookup DC50 | system=UniProtKB P49137 | key= CN1CC2(CNC(=O)c3c2[nH]c2c3CCc3cnc(-c4cc(N5CCN(CCCCc6cccc7c6n(C)c(=O)n7C6CCC(=O)NC6=O)CC5)ccc4F)cc3-2)C1 (stereo not drawn)
[reply] > 100 nM

[ask] // lookup DC50 | system=UniProtKB P49137 | key= Cc1cc(N2CCC(CN3CCN(c4ccc5c(c4)n(C)c(=O)n5C4CCC(=O)NC4=O)CC3)CC2)ccc1-c1ccc2c(ccc3sc4c(c32)NC[C@@H](C)NC4=O)n1 (stereo partly drawn)
[reply] < 1 nM

* * *

# key: entry, value: DC50
# TESTED TARGET: MK2 (Homo sapiens, UniProt P49137)
# Sequence (P49137 whole entry): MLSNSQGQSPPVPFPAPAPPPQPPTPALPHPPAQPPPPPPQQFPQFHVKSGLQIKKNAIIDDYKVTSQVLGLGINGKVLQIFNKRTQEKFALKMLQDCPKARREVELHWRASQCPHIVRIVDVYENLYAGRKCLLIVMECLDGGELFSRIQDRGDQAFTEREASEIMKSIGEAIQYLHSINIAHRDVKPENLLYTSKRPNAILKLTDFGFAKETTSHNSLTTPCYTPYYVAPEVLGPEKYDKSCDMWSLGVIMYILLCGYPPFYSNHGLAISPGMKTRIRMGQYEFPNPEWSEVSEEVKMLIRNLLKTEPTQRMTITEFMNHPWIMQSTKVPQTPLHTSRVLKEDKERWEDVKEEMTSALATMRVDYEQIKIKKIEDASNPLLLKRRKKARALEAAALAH
# ASSAY DETAILS: MK2 degradation in human THP-1 monocytic cells (MSD, 24 h)
# Format: cell-based
# Parameters: endogenous in cells
# PARTICULARS: THP-1 cells, read-out: MK2 MSD THP-1 degradation 24 h GMean External Abs DC50

Worked set:
[ask] Please report the recorded DC50 for Cn1c(=O)n(C2CCC(=O)NC2=O)c2ccc(N3CCC(CN4CCN(c5cc(-c6cc(-c7cc8c([nH]7)CCNC8=O)ccn6)cc(C6CCCC6)c5)CC4)CC3)cc21 (stereo not drawn) [Compound I-193] .
[reply] > 100 nM

[ask] Please report the recorded DC50 for C[C@@H]1CNc2c(sc3ccc4nc(N5CCCN(CC6CCN(c7cccc8c7n(C)c(=O)n8C7CCC(=O)NC7=O)CC6)CC5)ccc4c23)C(=O)N1 (stereo partly drawn) [Compound I-442] .
[reply] > 100 nM

Now look at this one.
[ask] Please report the recorded DC50 for Cc1ccc(NC(=O)c2cccc(C(F)(F)F)c2)cc1N1Cc2cnc(Nc3ccc(N4CCN(CCCCC(=O)N[C@H](C(=O)N5C[C@H](O)C[C@H]5C(=O)N[C@@H](C)c5ccc(-c6scnc6C)cc5)C(C)(C)C)CC4)nc3)nc2N(C)C1=O [Compound I-463] .
[reply] 1 to 10 nM

All values here come from patent US20230135894A1.
